- System name: T1, human TL1A extracellular domain with N-terminal HIS and FLAG tag (human, UniProt O95150 72-251)
- T1 construct: whole entry named. ~70 kDa fraction purified by gel filtration
- T1 sequence: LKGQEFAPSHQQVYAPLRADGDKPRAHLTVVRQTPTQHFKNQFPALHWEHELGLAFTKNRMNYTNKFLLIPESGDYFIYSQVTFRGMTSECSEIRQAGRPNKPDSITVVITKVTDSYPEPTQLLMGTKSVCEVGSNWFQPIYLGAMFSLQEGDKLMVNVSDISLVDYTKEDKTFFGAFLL
- Assay explanation: SPR run 2; supernatant on Protein A; TL1A 10 ug/mL; timepoint 44
Measured attribute: TL1A Binding Level (Early) (RU)
Numbers only, in RU.

// known answers, use as guide
Prompt: # input binder: 320-218 (antibody, human IgG1, name in Kabat numbering, V domains shown, human IgG1, lambda) VH: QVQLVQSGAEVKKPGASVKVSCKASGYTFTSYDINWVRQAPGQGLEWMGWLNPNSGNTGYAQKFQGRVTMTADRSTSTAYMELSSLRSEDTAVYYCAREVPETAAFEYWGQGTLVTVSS VL: QSVLTQPPSVSGAPGQRVTISCTSSQSDIGAGLGVHWYQQLPGTAPKLLIEGYYNRPSGVPDRFSGSKSGTSASLTITGLLPEDEGDYYCQSYDGTLSALFGGGTKLTVLG ; wanted: its TL1A Binding Level (Early)
Response: 239

Prompt: Check 320-196 (antibody, human IgG1, name in Kabat numbering, V domains shown, human IgG1, lambda) VH: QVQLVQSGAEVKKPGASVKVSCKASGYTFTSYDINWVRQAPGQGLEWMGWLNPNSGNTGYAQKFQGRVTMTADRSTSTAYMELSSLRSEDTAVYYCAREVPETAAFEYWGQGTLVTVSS VL: QSVLTQPPSVSGAPGQRVTISCHSSSSDIGAGLGVHWYQQLPGTAPKLLIEGYYNRPSGVPDRFSGSKSGTSASLTITGLLPEDEGDYYCQSYDGTLSALFGGGTKLTVLG too.
Response: 250

Alright, here's another binder for you.
Prompt: # input binder: 320-242 (antibody, human IgG1, name in Kabat numbering, V domains shown, human IgG1, lambda) VH: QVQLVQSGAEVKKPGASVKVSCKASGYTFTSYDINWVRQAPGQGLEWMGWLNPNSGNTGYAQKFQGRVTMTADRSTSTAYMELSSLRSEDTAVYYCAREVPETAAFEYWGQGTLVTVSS VL: QSVLTQPPSVSGAPGQRVTISCTSSSSDSGAGLGVHWYQQLPGTAPKLLIEGYYNRPSGVPDRFSGSKSGTSASLTITGLLPEDEGDYYCQSYDGTLSALFGGGTKLTVLG ; wanted: its TL1A Binding Level (Early)
Response: 124
